- System: ADCK4
- Particulars: concentration: 1 μM,replicates: in singlicate; n = 1;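 further: KINOMEscan kinase panel screen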
Endpoint name: %Inh (%)
The answer is to be given in %; state only the numeric part.

Prompt line: Form field: reported %Inh of O=C(NCCCN1CCOC1=O)c1cnc(NCc2cc(Cl)ccc2Cl)nc1NC1CCCC1
Response line: 18

Prompt line: Form field: reported %Inh of Cl.Cl.NC[C@H](Cc1ccc(C(F)(F)F)cc1)NC(=O)c1cc(Br)c(-c2ccnc3[nH]ccc23)s1 [GSK1487252]
Response line: 95.5

Prompt line: Form field: reported %Inh of CNC(=O)c1ccccc1Sc1ccc2c(/C=C/c3ccccn3)n[nH]c2c1
Response line: 0

Prompt line: Form field: reported %Inh of COc1ccc(C[C@@H](CN)NC(=O)c2cc(Br)c(-c3ccnc4[nH]ccc34)s2)cc1.Cl.Cl [GSK1389063]
Response line: 97.6

Prompt line: Form field: reported %Inh of CC(C)Nc1cc(-c2ccc3c(N)n[nH]c3c2)nc(N)n1 [GSK2221681]
Response line: 0

Prompt line: Form field: reported %Inh of Cc1n[nH]c2ccc(-c3cc(OC[C@@H](N)Cc4ccccc4)cnc3-c3ccoc3)cc12.O=C(O)C(F)(F)F.O=C(O)C(F)(F)F [GSK507358]
Response line: 98.6

Prompt line: Form field: reported %Inh of Nc1nc(Nc2ccccc2)cc(-c2ccc3c(N)n[nH]c3c2)n1 [GSK2225749]
Response line: 7

Prompt line: Form field: reported %Inh of Cc1ccc2c(-c3ccncc3)c(-c3ccc(F)cc3)nn2c1.Cl [GW461484]
Response line: 17

Prompt line: Form field: reported %Inh of Cc1occc1-c1nc(N)c(OC[C@@H](N)Cc2c[nH]c3ccccc23)cc1-c1cc2c(C)n[nH]c2cn1 [GSK1660450]
Response line: 21

Prompt line: Form field: reported %Inh of Cc1ccc(-n2nc(C(C)(C)C)cc2NC(=O)Nc2ccc(OCCN3CCOCC3)c3ccccc23)cc1 [GW839464]
Response line: 7

Prompt line: Form field: reported %Inh of Cc1cc2cn[nH]c2cc1-c1cccc2c(N)c(C(N)=O)nnc12
Response line: 0

Prompt line: Form field: reported %Inh of C=CC(=O)Nc1cc2c(Nc3ccc(F)c(Cl)c3)ncnc2cc1OCCCN1CCOCC1 [GW781483]
Response line: 19

Prompt line: Form field: reported %Inh of Cc1cc(C(=O)Nc2ccc(Oc3ccc4nc(NC(=O)C5CC5)cn4n3)cc2)nn1-c1ccccc1
Response line: 0

====

Field: %Inh. Provide a value for each of the molecules that follow.
- Test system: GRK4
- Particulars: concentration: 1 μM,replicates: in singlicate; n = 1
The answer is to be given in %; state only the numeric part.

Prompt line: Form field: reported %Inh of Cl.Cl.NC[C@H](CC1CCCCC1)NC(=O)c1cc(Br)c(-c2ccnc3[nH]ccc23)s1
Response line: 88

Prompt line: Form field: reported %Inh of C[C@@H]1CCN(C(=O)CC#N)C[C@@H]1N(C)c1ncnc2[nH]ccc12
Response line: 0

Prompt line: Form field: reported %Inh of Cc1ccc(-n2nc(C(C)(C)C)cc2NC(=O)Nc2ccc(OCCN3CCOCC3)c3ccccc23)cc1
Response line: 16

Prompt line: Form field: reported %Inh of Cl.Oc1cc(-c2nc(-c3ccccc3)[nH]c2-c2ccncc2)ccc1Cl
Response line: 20

Prompt line: Form field: reported %Inh of Cc1n[nH]c2ccc(-c3cc(OC[C@@H](N)Cc4ccccc4)cnc3-c3ccoc3)cc12.O=C(O)C(F)(F)F.O=C(O)C(F)(F)F
Response line: 34

Prompt line: Form field: reported %Inh of NC(=O)c1cc(-c2ccccc2)cc2c(C3CCNCC3)c[nH]c12
Response line: 2

Prompt line: Form field: reported %Inh of Cl.Cl.Nc1nc(-c2ccc3c(N)n[nH]c3c2)cc(N2CCCC(NC(=O)c3ccccc3)C2)n1 (centres unmarked)
Response line: 55

Prompt line: Form field: reported %Inh of Cc1occc1-c1nc(N)c(OC[C@@H](N)Cc2c[nH]c3ccccc23)cc1-c1cc2c(C)n[nH]c2cn1
Response line: 49

====

- Tested on: MAP3K2
- Particulars: concentration: 1 μM,replicates: in singlicate; n = 1
Endpoint name: %Inh
Mention the unit after the number when you answer.

Prompt line: Form field: reported %Inh of NC(=O)c1cc(-c2ccccc2)cc2c(C3CCNCC3)c[nH]c12
Response line: 70%

Prompt line: Form field: reported %Inh of COc1ccc(C[C@@H](CN)NC(=O)c2cc(Br)c(-c3ccnc4[nH]ccc34)s2)cc1.Cl.Cl
Response line: 73%

Prompt line: Form field: reported %Inh of CC(C)Nc1cc(-c2ccc3c(N)n[nH]c3c2)nc(N)n1
Response line: 1%

Prompt line: Form field: reported %Inh of Cc1ccc2c(-c3ccncc3)c(-c3ccc(F)cc3)nn2c1.Cl
Response line: 0%

Prompt line: Form field: reported %Inh of CCn1c(-c2nonc2N)nc2c(C#CC(C)(C)O)nc(OCCN)cc21.Cl.Cl
Response line: 61%

Prompt line: Form field: reported %Inh of CN(C)CC(O)COc1ccc(Nc2nccc(-c3cnn4nc(N5CCOCC5)ccc34)n2)cc1 (stereo not shown)
Response line: 49%

Prompt line: Form field: reported %Inh of CNC(=O)c1ccccc1Sc1ccc2c(/C=C/c3ccccn3)n[nH]c2c1
Response line: 0%

====

Field: %Inh. Provide a value for each of the compounds that follow.
- System: ULK1
- Particulars: concentration: 1 μM,replicates: in singlicate; n = 1
The answer is to be given in %; state only the numeric part.

Prompt line: Form field: reported %Inh of Cc1cc(C(=O)Nc2ccc(Oc3ccc4nc(NC(=O)C5CC5)cn4n3)cc2)nn1-c1ccccc1
Response line: 0

Prompt line: Form field: reported %Inh of Cc1cc2cn[nH]c2cc1-c1cccc2c(N)c(C(N)=O)nnc12
Response line: 28

Prompt line: Form field: reported %Inh of CC(C)Nc1cc(-c2ccc3c(N)n[nH]c3c2)nc(N)n1
Response line: 76

Prompt line: Form field: reported %Inh of C[C@H]1Oc2cc(cnc2N)-c2c(nn(C)c2C#N)CN(C)C(=O)c2ccc(F)cc21
Response line: 0

Prompt line: Form field: reported %Inh of CC(C)N1C(=O)Cc2cc(Nc3ncc(C(F)(F)F)c(NCc4cccc(S(C)(=O)=O)c4)n3)ccc21
Response line: 60

Prompt line: Form field: reported %Inh of C[C@@H](Oc1cc(-c2cnn(C3CCNCC3)c2)cnc1N)c1c(Cl)ccc(F)c1Cl
Response line: 67

Prompt line: Form field: reported %Inh of O=C(NCCNc1ccnc(NCc2ccc(F)cc2)n1)c1cc2ccccc2s1
Response line: 3

Prompt line: Form field: reported %Inh of CCN(CC)CCOc1ccc(Nc2ncc3cc(-c4c(Cl)cccc4Cl)c(=O)n(C)c3n2)cc1
Response line: 92.4

Prompt line: Form field: reported %Inh of C[C@@H]1CCN(C(=O)CC#N)C[C@@H]1N(C)c1ncnc2[nH]ccc12
Response line: 0

Prompt line: Form field: reported %Inh of CN(C)CCOc1ccc(-c2cc(-c3c[nH]nc3-c3ccccn3)ccn2)cc1
Response line: 0

Prompt line: Form field: reported %Inh of Cl.Cl.Nc1nc(-c2ccc3c(N)n[nH]c3c2)cc(N2CCCC(NC(=O)c3ccccc3)C2)n1 (stereo not shown)
Response line: 11

Prompt line: Form field: reported %Inh of Cl.Cl.NC[C@H](Cc1ccc(C(F)(F)F)cc1)NC(=O)c1cc(Br)c(-c2ccnc3[nH]ccc23)s1
Response line: 5

Prompt line: Form field: reported %Inh of NC(=O)c1cc(-c2ccccc2)cc2c(C3CCNCC3)c[nH]c12
Response line: 23

====

Field: %Inh. Provide a value for each of the compounds that follow.
- System: WNK1
- Particulars: concentration: 1 μM,replicates: in singlicate; n = 1
The answer is to be given in %; state only the numeric part.

Prompt line: Form field: reported %Inh of Cc1occc1-c1nc(N)c(OC[C@@H](N)Cc2c[nH]c3ccccc23)cc1-c1cc2c(C)n[nH]c2cn1 [GSK1660450]
Response line: 0

Prompt line: Form field: reported %Inh of C[C@H]1Oc2cc(cnc2N)-c2c(nn(C)c2C#N)CN(C)C(=O)c2ccc(F)cc21
Response line: 0

Prompt line: Form field: reported %Inh of CCN(CC)CCCCNc1ncc2cc(-c3c(Cl)cccc3Cl)c(NC(=O)NC(C)(C)C)nc2n1
Response line: 0

Prompt line: Form field: reported %Inh of Nc1nc(Nc2ccccc2)cc(-c2ccc3c(N)n[nH]c3c2)n1 [GSK2225749]
Response line: 5

Prompt line: Form field: reported %Inh of Cl.Cl.Nc1nc(-c2ccc3c(N)n[nH]c3c2)cc(N2CCCC(NC(=O)c3ccccc3)C2)n1 (centres unmarked) [GSK2286775]
Response line: 37

Prompt line: Form field: reported %Inh of Cc1ccc(-n2nc(C(C)(C)C)cc2NC(=O)Nc2ccc(OCCN3CCOCC3)c3ccccc23)cc1 [GW839464]
Response line: 0

Prompt line: Form field: reported %Inh of CNC(=O)c1ccccc1Sc1ccc2c(/C=C/c3ccccn3)n[nH]c2c1
Response line: 0

Prompt line: Form field: reported %Inh of CN(C)CCOc1ccc(-c2cc(-c3c[nH]nc3-c3ccccn3)ccn2)cc1 [GW835314]
Response line: 9
